Values were extracted from patent US11505543B2.

# Tested on: recombinant NL4-3 virus (nef section replaced with Renilla luciferase gene) in MT-2 cells
# assay.name: HIV cell culture assay (antiviral activity, luciferase readout)
# Format: cell-based
# particulars: Renilla, NL43, MT-2 cells infected for 4-5 days with recombinant NL4-3 Renilla luciferase virus, serial dilutions of compound
# Text: HIV cell culture assay—MT-2 cells, 293T cells and the proviral DNA clone of NL4-3 virus were obtained from the NIH AIDS Research and Reference Reagent Program. […] Luciferase was quantitated using the EnduRen Live Cell Substrate from Promega (Madison, Wis.). Antiviral activities of compounds toward the recombinant virus were quantified by measuring luciferase activity in MT-2 cells infected for 4-5 days with the recombinant virus in the presence of serial dilutions of the compound. […]
The entries below come with measured pEC50 values attached.
For clarity, pEC50 is expressed as the negative log10 of concentration in mol/L.

Solved cases below.
{"columns": ["compound", "recorded.metric", "value.observed"],
 "data": [
  ["Cn1nc(NS(C)(=O)=O)c2c(Cl)ccc(-n3c([C@H](Cc4cc(F)cc(F)c4)NC(=O)Cn4nc(C(F)F)c5c4C(F)(F)[C@@H]4C[C@H]54)nc4cc(-c5ccccc5CO)ccc4c3=O)c21 (atropisomer, axis not shown; (aR))", "pEC50", 9.85],
  ["Cn1nc(NS(C)(=O)=O)c2c(Cl)ccc(-n3c([C@H](Cc4cc(F)cc(F)c4)NC(=O)Cn4nc(C(F)F)c5c4C(F)(F)[C@@H]4C[C@H]54)nc4cc(-c5ccc(Oc6ccccc6)cc5)ccc4c3=O)c21 (atropisomer, axis not shown; (aR))", "pEC50", 8.01],
  ["CC(C)n1ccc(CC(=O)N[C@@H](Cc2cc(F)cc(F)c2)c2nc3cc(-c4ccccc4F)ccc3c(=O)n2-c2ccc(Cl)c3c(NS(=O)(=O)C4CC4)nn(CC(F)F)c23)n1", "pEC50", 9.46],
  ["COc1ccc(-c2ccc3c(=O)n(-c4ccc(S(=O)(=O)N5CCOCC5)cc4)c([C@H](Cc4cc(F)cc(F)c4)NC(=O)Cn4ccc(C5CC5)n4)nc3c2)cn1", "pEC50", 8.24],
  ["CC(C)S(=O)(=O)c1ccccc1-c1ccc2c(=O)n(-c3ccc(Cl)c4c(NS(C)(=O)=O)nn(CC(F)F)c34)c([C@H](Cc3cc(F)cc(F)c3)NC(=O)Cn3nc(C(F)F)c4c3C(F)(F)[C@@H]3C[C@H]43)nc2c1", "pEC50", 10.19]
]}

Record for Cn1nc(NS(C)(=O)=O)c2c(Cl)ccc(-n3c([C@H](Cc4cc(F)cc(F)c4)NC(=O)Cn4nc(C(F)F)c5c4C(F)(F)[C@@H]4C[C@H]54)nc4cc(-c5ncccn5)ccc4c3=O)c21 (atropisomer, axis not shown; (aR)) under target or system recombinant NL4-3 virus (nef section replaced with Renilla luciferase gene) in MT-2 cells: pEC50 reported as 10.60

Record for CS(=O)(=O)Nc1nn(CC(F)(F)F)c2c(-n3c([C@H](Cc4cc(F)cc(F)c4)NC(=O)Cn4nc(C(F)F)c5c4C(F)(F)[C@@H]4C[C@H]54)nc4cc(-c5ncccn5)ccc4c3=O)ccc(Cl)c12 under target or system recombinant NL4-3 virus (nef section replaced with Renilla luciferase gene) in MT-2 cells: pEC50 reported as 10.34
